- testedOn: DRB4*0101
- assayRemarks: binding to purified HLA
- conditionDetails: chains peptide; modification not given
testReadout: IC50 (nM)

- AKFVAAWTLKAAA [SEQ ID NO: 3]: 447
